Assignment: determine reported IC50 for the given compounds.
biological target: human proteinase 3 (Homo sapiens); construct: purchased Elastin Products Company, USA; assay: Inhibition of human proteinase 3 (Boc-Ala-Ala-Nva-SBzl); type: biochemical; settings: 10 nM enzyme, 1 mM substrate, 37° C., pH7.4; read-out: Human proteinase 3 (hPr3) IC50
Sequence (P24158 28-248): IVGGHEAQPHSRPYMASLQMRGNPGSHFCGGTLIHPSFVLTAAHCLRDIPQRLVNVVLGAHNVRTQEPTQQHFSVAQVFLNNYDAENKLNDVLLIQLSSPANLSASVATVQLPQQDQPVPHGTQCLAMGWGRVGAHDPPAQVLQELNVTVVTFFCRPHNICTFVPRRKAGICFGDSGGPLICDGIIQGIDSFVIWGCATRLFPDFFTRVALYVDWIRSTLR
Non-standard residues stand in square brackets, D forms with d. Residues, ends and D or L forms follow the SMILES beside them. AllylGly = C=CC[C@H](N)C(=O)O
Give the value in µM but do not write µM after it.

IC50 recorded for this compound, C=CC[C@@H]1NC(=O)[C@H]([C@@H](C)O)NC(=O)[C@H](CCC(=O)O)NC(=O)[C@H](CCCNC(=N)N)NC(=O)[C@@H]2CCCN2C(=O)[C@H]2CCCN2C(=O)[C@H]([C@@H](C)O)NC(=O)[C@H](CCCCN)NC(=O)[C@H](CCC(N)=O)NC(=O)[C@@H]2CCCN2C(=O)[C@@H]2CCCN2C(=O)[C@H]([C@@H](C)CC)NC(=O)[C@H](CO)NC1=O [Example 7] (cyclo(RET[AllylGly]SIPPQKT[dP]P)) , is 80.2

Query CC[C@H](C)[C@@H]1NC(=O)[C@H](CO)NC(=O)[C@H](C)NC(=O)[C@H]([C@@H](C)O)NC(=O)[C@H](CCC(=O)O)NC(=O)[C@H](CCCNC(=N)N)NC(=O)[C@@H]2CCCN2C(=O)[C@H]2CCCN2C(=O)[C@H](Cc2c[nH]cn2)NC(=O)[C@H](CCCCN)NC(=O)[C@H](Cc2ccc(O)cc2)NC(=O)[C@@H]2CCCN2C(=O)[C@@H]2CCCN2C1=O [Example 14] (cyclo(RETASIPPYKH[dP]P)) yields IC50 of 77.6

Data origin: patent US10723765B2
